measuredOn: Serine/threonine-protein kinase D1 (Homo sapiens)
statedConditions: at 1 µM
So basically: inhibition at 30% or higher? That is y. Lower than 30%? That is n.

Consider the following illustrative entries.
[
  {
    "smilesStr": "FC(F)(F)c1cccc(-c2nn3ncccc3c2-c2ccnc(Nc3ccc4c(c3)OCCO4)n2)c1",
    "measuredOn": "Serine/threonine-protein kinase D1 (Homo sapiens)",
    "answerLabel": "y"
  },
  {
    "smilesStr": "[O-][S+]1CCN(Cc2ccc(-c3ccc4ncnc(Nc5ccc(OCc6cccc(F)c6)c(Cl)c5)c4c3)o2)CC1",
    "measuredOn": "Serine/threonine-protein kinase D1 (Homo sapiens)",
    "answerLabel": "n"
  },
  {
    "smilesStr": "CNC(=O)c1cncc(/C=C/c2ccccc2Cl)c1",
    "measuredOn": "Serine/threonine-protein kinase D1 (Homo sapiens)",
    "answerLabel": "n"
  },
  {
    "smilesStr": "CNC(=O)c1cc(-c2ccc(F)cc2)cc(-c2ccc(S(=O)(=O)N3CCCC3)cc2)c1N",
    "measuredOn": "Serine/threonine-protein kinase D1 (Homo sapiens)",
    "answerLabel": "n"
  },
  {
    "smilesStr": "CCN1CCC(CC(=O)Nc2n[nH]c3nnc(-c4cccc(F)c4F)cc23)CC1",
    "measuredOn": "Serine/threonine-protein kinase D1 (Homo sapiens)",
    "answerLabel": "n"
  }
]

Challenge: Form field: inhibition at least 30%? Entry: Cc1ccc2c(-c3ccnc(Nc4ccccc4)n3)c(-c3ccc(F)cc3)nn2n1
Response given: y

Challenge: Form field: inhibition at least 30%? Entry: CC(C)COC(=O)c1ccc2c(c1)/C(=C/Nc1ccc(S(N)(=O)=O)cc1)C(=O)N2
Response given: y

Challenge: Form field: inhibition at least 30%? Entry: Clc1ccc(-c2nn3ncccc3c2-c2ccnc(Nc3ccccc3)n2)cc1
Response given: n

Challenge: Form field: inhibition at least 30%? Entry: Nc1ncc(-c2cccc(S(N)(=O)=O)c2)c2scc(-c3ccc(F)c(Cl)c3)c12
Response given: y

Challenge: Form field: inhibition at least 30%? Entry: CCCN1CCC(c2ccc(Nc3nc(Nc4cc(F)ccc4C(N)=O)c4cc[nH]c4n3)c(OC)c2)CC1
Response given: y

Challenge: Form field: inhibition at least 30%? Entry: CNC(=O)c1cccc(C#Cc2cncnc2Nc2ccc(OCc3cccc(F)c3)c(Cl)c2)c1
Response given: n

Challenge: Form field: inhibition at least 30%? Entry: Fc1ccc(-c2cc(-c3c[nH]nc3-c3ccccn3)ccn2)cc1
Response given: n

Challenge: Form field: inhibition at least 30%? Entry: CCNC(=O)O[C@H]1CN[C@H](C#Cc2cc3ncnc(Nc4ccc(OCc5cccc(F)c5)c(Cl)c4)c3s2)C1
Response given: n

Challenge: Form field: inhibition at least 30%? Entry: CCN(CC)S(=O)(=O)c1ccc(OC)c(Nc2ncc(-c3ccccc3)o2)c1
Response given: n

====

Below is a list of entries, each paired with its recorded inhibition value.
measuredOn: Serine/threonine-protein kinase MRCK beta (Homo sapiens)
statedConditions: at 0.1 µM
Answer with a number only, understood to be in %.

Look over these answered cases.
[
  {
    "smilesStr": "COc1ccc2[nH]c3c4[nH]c5ccc(OC)cc5c4c4c(c3c2c1)C(=O)NC4=O",
    "unitInfo": "%",
    "inhibition": -0.86
  },
  {
    "smilesStr": "O=C(Nc1n[nH]c2cc(-c3ccc(F)cc3)ccc12)C1CC1",
    "unitInfo": "%",
    "inhibition": 0.84
  },
  {
    "smilesStr": "[O-][S+]1CCN(Cc2ccc(-c3ccc4ncnc(Nc5ccc(OCc6cccc(F)c6)c(Cl)c5)c4c3)o2)CC1",
    "unitInfo": "%",
    "inhibition": -0.28
  },
  {
    "smilesStr": "Fc1ccc(-c2cc(-c3c[nH]nc3-c3ccccn3)ccn2)cc1",
    "unitInfo": "%",
    "inhibition": -1.2
  },
  {
    "smilesStr": "CN(C)CCOc1ccc(-c2nc(-c3ccncc3)c(-c3ccc4c(c3)CC/C4=N\\O)[nH]2)cc1",
    "unitInfo": "%",
    "inhibition": 0.46
  },
  {
    "smilesStr": "CC(C)(CO)CNC(=O)c1ccc2c(c1)/C(=N/Nc1ccc(S(N)(=O)=O)cc1)C(=O)N2",
    "unitInfo": "%",
    "inhibition": 0.21
  },
  {
    "smilesStr": "CNC(=O)c1cncc(/C=C/c2ccccc2Cl)c1",
    "unitInfo": "%",
    "inhibition": -0.05
  },
  {
    "smilesStr": "COc1cccc(-c2c[nH]c3c(N/N=C/c4ccncc4)ncnc23)c1",
    "unitInfo": "%",
    "inhibition": 0.92
  },
  {
    "smilesStr": "COc1cc(Nc2nccc(Nc3ccc4c(C)n[nH]c4c3)n2)cc(OC)c1OC",
    "unitInfo": "%",
    "inhibition": 1.88
  },
  {
    "smilesStr": "Cc1cccc2c1NC(=O)/C2=N\\Nc1ccc(S(N)(=O)=O)cc1",
    "unitInfo": "%",
    "inhibition": 1.33
  }
]

Attention now shifts to the item below.
Challenge: Find the recorded inhibition belonging to COc1ccc(-c2oc3ncnc(N)c3c2-c2ccc(NC(=O)Nc3cc(C(F)(F)F)ccc3F)cc2)cc1 and report it.
Response given: 0.63

====

Below is a list of entries, each paired with its recorded inhibition value.
measuredOn: Serine/threonine-protein kinase pim-2 (Homo sapiens) (UniProt Q9P1W9)
Sequence (Q9P1W9 whole entry, looked up): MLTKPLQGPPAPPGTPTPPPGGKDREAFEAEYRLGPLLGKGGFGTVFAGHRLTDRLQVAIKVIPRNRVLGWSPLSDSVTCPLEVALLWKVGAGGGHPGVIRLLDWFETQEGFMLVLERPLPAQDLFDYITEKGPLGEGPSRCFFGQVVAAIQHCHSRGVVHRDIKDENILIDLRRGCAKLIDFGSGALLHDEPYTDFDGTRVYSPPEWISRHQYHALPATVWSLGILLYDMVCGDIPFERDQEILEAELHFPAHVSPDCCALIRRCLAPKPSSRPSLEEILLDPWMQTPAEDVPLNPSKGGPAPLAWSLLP
statedConditions: at 0.1 µM
Answer with a number only, understood to be in %.

Challenge: Find the recorded inhibition belonging to CC(=O)NCc1cccc(C#Cc2cncnc2Nc2ccc(OCc3cccc(F)c3)c(Cl)c2)c1 and report it.
Response given: 0.41

Challenge: Find the recorded inhibition belonging to [O-][S+]1CCN(Cc2ccc(-c3ccc4ncnc(Nc5ccc(OCc6cccc(F)c6)c(Cl)c5)c4c3)o2)CC1 and report it.
Response given: 0.73

Challenge: Find the recorded inhibition belonging to Nc1nc(-c2ccc(F)cc2)c(-c2ccc3ncccc3n2)s1 and report it.
Response given: 0.17

Challenge: Find the recorded inhibition belonging to Nc1ncc(-c2cccc(S(N)(=O)=O)c2)c2scc(-c3ccc(F)c(Cl)c3)c12 and report it.
Response given: 0.52

Challenge: Find the recorded inhibition belonging to COc1ccc(-c2nn3ncccc3c2-c2ccnc(Nc3ccc4c(c3)OCCO4)n2)cc1 and report it.
Response given: 0.54

Challenge: Find the recorded inhibition belonging to c1ccc(-c2nc3n(c2-c2ccc4c(c2)OCO4)CCC3)nc1 and report it.
Response given: -0.34

Challenge: Find the recorded inhibition belonging to CNC(=O)c1cccc(C#Cc2cncnc2Nc2ccc(OCc3cccc(F)c3)c(Cl)c2)c1 and report it.
Response given: 0.37

Challenge: Find the recorded inhibition belonging to Cc1cccc(Nc2ncc(-c3ccccc3)o2)c1 and report it.
Response given: 0.15

====

measuredOn: Macrophage colony-stimulating factor 1 receptor (Homo sapiens)
statedConditions: at 1 µM
Below is a list of entries, each paired with its recorded inhibition value.
Answer with a number only, understood to be in %.

Look over these answered cases.
[
  {
    "compound": "CNC(=O)c1cccc(C#Cc2cncnc2Nc2ccc(OCc3cccc(F)c3)c(Cl)c2)c1",
    "inhibition / %": 7.16
  },
  {
    "compound": "NS(=O)(=O)c1ccc(N/N=C2\\C(=O)Nc3ccc4ncccc4c32)cc1",
    "inhibition / %": 79.3
  }
]

Challenge: Find the recorded inhibition belonging to CC1=C(C(=O)Nc2cc(Cl)c3[nH]ncc3c2)C(c2ccc(C(F)(F)F)cc2)CC(=O)N1 (configuration not stated) and report it.
Response given: 1.8

Challenge: Find the recorded inhibition belonging to Cc1ccc(O)cc1Nc1ccnc2cc(-c3ccccn3)ccc12 and report it.
Response given: 20.4

Challenge: Find the recorded inhibition belonging to Nc1nc(-c2cccc(Cl)c2)c(-c2ccc3ncccc3n2)s1 and report it.
Response given: 2.3

====

Below is a list of entries, each paired with its recorded inhibition value.
measuredOn: Serine/threonine-protein kinase TBK1 (Homo sapiens) (UniProt Q9UHD2)
Sequence (Q9UHD2 whole entry): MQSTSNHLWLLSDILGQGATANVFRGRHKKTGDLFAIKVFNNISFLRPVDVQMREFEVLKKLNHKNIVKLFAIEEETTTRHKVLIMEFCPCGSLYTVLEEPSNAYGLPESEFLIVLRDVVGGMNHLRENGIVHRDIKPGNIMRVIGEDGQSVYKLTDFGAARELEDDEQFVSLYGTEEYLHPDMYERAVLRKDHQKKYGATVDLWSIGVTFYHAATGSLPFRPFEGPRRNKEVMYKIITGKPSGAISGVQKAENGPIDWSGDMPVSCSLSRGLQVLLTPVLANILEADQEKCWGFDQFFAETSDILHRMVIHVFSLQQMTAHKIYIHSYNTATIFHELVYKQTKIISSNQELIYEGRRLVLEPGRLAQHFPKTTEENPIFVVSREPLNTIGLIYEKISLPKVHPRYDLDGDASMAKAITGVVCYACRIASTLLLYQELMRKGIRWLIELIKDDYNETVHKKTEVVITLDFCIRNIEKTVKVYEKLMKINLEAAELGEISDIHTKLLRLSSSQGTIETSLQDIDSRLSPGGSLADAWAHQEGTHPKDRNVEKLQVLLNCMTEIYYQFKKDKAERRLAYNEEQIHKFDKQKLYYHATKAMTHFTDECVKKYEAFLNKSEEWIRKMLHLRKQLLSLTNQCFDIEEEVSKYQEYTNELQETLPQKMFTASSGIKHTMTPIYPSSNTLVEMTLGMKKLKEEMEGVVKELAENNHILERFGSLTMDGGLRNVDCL
statedConditions: at 0.1 µM
Answer with a number only, understood to be in %.

Look over these answered cases.
[
  {
    "smilesStr": "CCN(CC)S(=O)(=O)c1ccc(OC)c(Nc2ncc(-c3ccccc3)o2)c1",
    "unitInfo": "%",
    "inhibition": 1.32
  },
  {
    "smilesStr": "CNC(=O)c1cncc(/C=C/c2ccccc2Cl)c1",
    "unitInfo": "%",
    "inhibition": 0.45
  },
  {
    "smilesStr": "CCn1c(-c2nonc2N)nc2c(C#CC(C)(C)O)ncc(OC3CCNCC3)c21",
    "unitInfo": "%",
    "inhibition": 12.2
  },
  {
    "smilesStr": "NS(=O)(=O)c1ccc(Nc2ncc(-c3ccccc3)o2)cc1",
    "unitInfo": "%",
    "inhibition": 3.13
  },
  {
    "smilesStr": "CN(C)CCOc1ccc(-c2nc(-c3ccncc3)c(-c3ccc4c(c3)CC/C4=N\\O)[nH]2)cc1",
    "unitInfo": "%",
    "inhibition": 1.69
  }
]

Challenge: Find the recorded inhibition belonging to CCn1c(-c2nonc2N)nc2c(C#CC(C)(C)O)nc(OC[C@H](N)c3ccccc3)cc21 and report it.
Response given: 3.75

Challenge: Find the recorded inhibition belonging to c1ccc(COc2ccc(Nc3ncnc4ccc(-c5ccco5)cc34)cc2)cc1 and report it.
Response given: -0.27

Challenge: Find the recorded inhibition belonging to CN1CCC(n2cnc(-c3ccc(F)cc3)c2-c2ccnc(Nc3ccccc3)n2)CC1 and report it.
Response given: 0.4

Challenge: Find the recorded inhibition belonging to COc1ccc2[nH]c3c4[nH]c5ccc(OC)cc5c4c4c(c3c2c1)C(=O)NC4=O and report it.
Response given: 10.9

Challenge: Find the recorded inhibition belonging to COc1cc(N2CCN(C(C)C)CC2)ccc1Nc1nc(Nc2ccc(F)cc2C(N)=O)c2cc[nH]c2n1 and report it.
Response given: 3.02
